Reference source: ChEMBL document CHEMBL3507680

# test name: Human HepG2 cell viability assay in 384 well format
# Type: toxicity, cell-based
# Design: dose 125 nL, time 70.5 hour; concentration not given beside the values
# study conditions: HepG2 cells, read-out: Inhibition
Provide the recorded cytotoxicity at 70.5 h for the entries that follow.

Worked examples follow.
{"columns": ["compound", "cytotoxicity at 70.5 h"],
 "data": [
  ["O=C(N[C@@H]1CN(c2ncccn2)[C@@H]2CCCO[C@@H]21)c1cnccn1", "-1.73%"],
  ["CCc1ccc(C(=O)NC2CCN(c3cnn(C)c3)C2=O)o1 (configuration not stated)", "-9%"],
  ["COCc1ncn2c1CN(S(=O)(=O)c1cccs1)CCC2", "10.6%"],
  ["Cc1cccc(N(CC(=O)c2ccccc2)C2=NCCCCC2)c1", "-11.4%"],
  ["CCn1ncc2c1NC(=O)CC2c1cnc(-c2ccccn2)nc1 (configuration not stated)", "-2.85%"]
]}

Could I get cytotoxicity at 70.5 h for every one of these entries?
1. CN1CCC(c2cccc(C(=O)N(C)C)n2)CC1
2. NC(=O)CCn1ccc(NC(=O)c2ccc(Br)o2)n1
3. Cc1ccc(NCc2nc3n(n2)CCCCC3)c(C)c1
4. CCOC(=O)CN1CCC(C(=O)c2cc(F)ccc2F)CC1
5. Cc1cccc(CN2CCC(c3nnsc3S(C)(=O)=O)CC2)c1

Result block:
1. -7.65%
2. -5.23%
3. 6.51%
4. 34.9%
5. -5.38%

Could I get cytotoxicity at 70.5 h for every one of these entries?
1. Cc1cc(C2CCCN(S(=O)(=O)c3cn[nH]c3)C2)ccn1 (configuration not stated)
2. Cc1ccc(-c2noc(CCC(=O)NC(C)Cn3cccn3)n2)cc1 (configuration not stated)

Result block:
1. -7.27%
2. -7.96%

====

# test name: Human HepG2 cell viability assay in 384 well format
# Format: toxicity, cell-based
# Set-up: dose 125 nL, time 70.5 hour; concentration not given beside the values
# study conditions: HepG2 cells, read-out: Inhibition
metric name: cytotoxicity at 70.5 h
Kindly write the number and append the unit.

{"columns": ["smiles", "cytotoxicity at 70.5 h"],
 "data": [
  ["Cc1nccc(-c2cccc(NCC(=O)NCC(=O)N3CCCC3)c2)n1", "-3.17%"],
  ["CCNS(=O)(=O)c1ccc(C)c(C(=O)N(C)Cc2ccccc2C)c1", "2.99%"],
  ["CNC(=O)c1ccc(=O)n(Cc2csc(N(C)C(C)=O)n2)c1", "-2.61%"]
]}

Could I get cytotoxicity at 70.5 h for every one of these entries?
1. O=C(NC1CCCCC1)N1C[C@H]2CN(c3cnccn3)C[C@@]2(C(=O)O)C1
2. Cc1nc(CNC(=O)Cn2nc(-c3ccc(F)cc3)oc2=O)cs1

Result block:
-14.9%
0.339%

====

# test name: Human HepG2 cell viability assay in 384 well format
# Assay type: toxicity, cell-based
# Parameters: dose 125 nL, time 70.5 hour; concentration not given beside the values
# study conditions: HepG2 cells, read-out: Inhibition
Provide the recorded cytotoxicity at 70.5 h for the entries that follow.
Answers are plain numbers, in %.

{"columns": ["molecule", "measure unit", "cytotoxicity at 70.5 h"],
 "data": [
  ["N#CC1(NC(=O)c2nccc3ccccc23)CCC1", "%", -8.96],
  ["Cc1csc([C@@H]2C[C@@H]3CCN(C(=O)c4cccn4C)C[C@H]3O2)n1", "%", 9.1],
  ["Cc1ccc(CN2CCC3(CC2)CCN(Cc2ccco2)CC3)cc1", "%", -6.1],
  ["CCn1ncc2c1C(COC)CN(Cc1ccco1)C2 (stereo unspecified)", "%", 3.48],
  ["c1cc(CCN2CCC(NCc3ccsc3)CC2)ccn1", "%", 15.8]
]}

Could I get cytotoxicity at 70.5 h for every one of these entries?
1. Cc1nc(C)c(C(=O)NCCNc2cc(N3CCCC3)ncn2)s1
2. N#CCc1ccc(NC(=O)Cn2cc(I)cn2)cc1
3. CCOc1nnc(CN(C)CC2CCCN2c2cccnn2)s1 (stereo unspecified)
4. Cc1n[nH]c(C)c1CNC(=O)c1cn(CCC2CCCCN2)nn1 (stereo unspecified)
5. CCc1nc(C2CCCN(C(=O)c3ccc(F)cc3)C2)no1 (stereo unspecified)

Result block:
1. 9.32
2. -9.71
3. -4.16
4. -1.34
5. -0.043

Query block: Please supply the value of reported cytotoxicity at 70.5 h for the item `Cc1ncsc1CN1CC[C@H]2C[C@H](c3ccncn3)O[C@@H]2C1`
Result block: -12.4
